FYI, the data here is from PubChem BioAssay AID1259407.

Test system: CCRIS mutagenicity, Ames/micronucleus/aberration tests
MEASUREMENT PROTOCOL: CCRIS mutagenicity studies
MEASUREMENT CONTEXT: Test System: AMES SALMONELLA TYPHIMURIUM; Strain/Indicator: TA98; Metabolic Activation: HAMSTER, LIVER, S-9, AROCLOR 1254 (10%); Method: PREINCUBATION
Source text: The CCRIS database contains chemical records with carcinogenicity, mutagenicity, tumor promotion, and tumor inhibition test results. It was developed by the National Cancer Institute (NCI). Data are derived from studies cited in primary journals, current awareness tools, NCI reports, and other sources. Test results have been reviewed by experts in carcinogenesis and mutagenesis. CCRIS provides historical information from the years 1985 - 2011. It is no longer updated. […]
The source made the active and inactive calls. How the calls were made is not given here.
Tick one outcome: True for active, False for inactive

Please review the following examples before continuing.
- MOLECULE: "O=Nc1ccc(O)cc1"
  CLASS ASSIGNMENT: "False"
- MOLECULE: "Cc1cc(-c2ccc(N/N=C3\\C(=O)c4c(O)cc(S(=O)(=O)O)cc4C=C3S(=O)(=O)O)c(C)c2)ccc1N/N=C1\\C(=O)c2c(O)cc(S(=O)(=O)O)cc2C=C1S(=O)(=O)O"
  CLASS ASSIGNMENT: "False"
- MOLECULE: "CC[C@H]1CN2CCc3cc(OC)c(OC)cc3[C@@H]2C[C@@H]1C[C@H]1NCCc2cc(OC)c(OC)cc21"
  CLASS ASSIGNMENT: "False"
- MOLECULE: "CCCC(C)(COC(N)=O)COC(=O)NC(C)C (stereo not given)"
  CLASS ASSIGNMENT: "False"
- MOLECULE: "CCCCC(C=O)CC (stereo not given)"
  CLASS ASSIGNMENT: "False"
- MOLECULE: "Oc1cccc(Nc2ccccc2)c1"
  CLASS ASSIGNMENT: "False"
- MOLECULE: "Clc1nc2ccccc2nc1Cl"
  CLASS ASSIGNMENT: "False"
- MOLECULE: "F"
  CLASS ASSIGNMENT: "False"

Record request — test call for "CCCCN" False

Record request — test call for "Cc1ccc(N)cc1" False

Record request — test call for CC(C#N)CCC#N (stereo not given) False

Record request — test call for "FC(F)(F)c1cccc(Cl)c1" False

Record request — test call for "O=Cc1ccccc1" False

Record request — test call for CCC(C)c1ccccc1O (stereo not given) False

Record request — test call for "CC(Cl)Cl" False

Record request — test call for "O=P(OCCCl)(OCCCl)OCCCl" False

Record request — test call for "B#B" False

Record request — test call for "ClC(Br)Br" False

Record request — test call for "Cc1cccc(C#N)c1" False

Record request — test call for "COC(=O)c1ccccc1C(=O)OC" False

Record request — test call for "Oc1cccc2cccnc12" False

Record request — test call for "O=C1C=C(O)c2ccccc2C1=O" False

Record request — test call for "Nc1ccc(NCCO)c([N+](=O)[O-])c1" True

Record request — test call for "CON" False

Record request — test call for "Oc1cc(Cl)c(Cl)c(Cl)c1" False

Record request — test call for "c1ccc(N(c2ccccc2)c2ccccc2)cc1" False

Record request — test call for "CCN" False

Record request — test call for "Nc1ccc(Sc2ccc(N)cc2)cc1" True

Record request — test call for "O[C@H]([C@H](O)[C@@H](O)CBr)[C@H](O)CBr" False
